target: Fes (UniProt P07332); test: phosphorylation enrichment, bacterial display (enrichment ratio); higher = better substrate or ligand; peptides without Tyr show the background;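 further: 11-residue human phosphosite peptides and single-mutation variants displayed on the E. coli surface, counted by deep sequencing, each peptide's frequency after selection divided by its frequency in the unselected input library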;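 further: frequency after pTyr selection over input frequency; kinase dosed for 20-30% of maximal phosphorylation in three min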
Sequence (P07332 whole entry, looked up): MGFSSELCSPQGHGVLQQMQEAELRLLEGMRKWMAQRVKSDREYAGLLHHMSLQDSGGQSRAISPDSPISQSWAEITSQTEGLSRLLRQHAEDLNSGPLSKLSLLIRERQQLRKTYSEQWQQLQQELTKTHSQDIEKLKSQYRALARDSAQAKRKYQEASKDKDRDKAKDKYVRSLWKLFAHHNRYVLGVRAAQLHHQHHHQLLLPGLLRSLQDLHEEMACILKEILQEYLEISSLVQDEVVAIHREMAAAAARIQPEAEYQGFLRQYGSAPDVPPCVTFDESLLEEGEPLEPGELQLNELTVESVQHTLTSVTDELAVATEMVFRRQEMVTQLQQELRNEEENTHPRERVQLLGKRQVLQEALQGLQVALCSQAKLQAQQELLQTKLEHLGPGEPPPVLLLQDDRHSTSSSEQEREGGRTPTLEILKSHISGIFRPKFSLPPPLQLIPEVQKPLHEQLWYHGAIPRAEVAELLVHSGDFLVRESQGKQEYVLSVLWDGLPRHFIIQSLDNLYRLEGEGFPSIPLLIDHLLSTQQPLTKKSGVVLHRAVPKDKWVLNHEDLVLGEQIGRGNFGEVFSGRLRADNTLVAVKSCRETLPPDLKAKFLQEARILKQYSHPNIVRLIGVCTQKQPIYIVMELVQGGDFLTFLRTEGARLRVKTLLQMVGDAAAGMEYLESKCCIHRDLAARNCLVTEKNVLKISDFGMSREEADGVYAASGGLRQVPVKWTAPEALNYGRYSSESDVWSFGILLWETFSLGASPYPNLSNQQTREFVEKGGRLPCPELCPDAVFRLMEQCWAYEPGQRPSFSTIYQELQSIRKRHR

# Sequence Entry, phosphorylation enrichment
records = [
    ("GFPVHYTDMSN [DNMT3B_Y815_V818M]", 0.699),
    ("KVNKIYYPDFI [LIG3_Y767]", 0.762),
    ("IENKLYGMSDS [RET_Y1062_P1067S]", 0.948),
    ("TQTPPYVKKHP [LARP1B_Y457]", 0.624),
    ("KEIHAYRKLLE [LMNA_Y376_M371K]", 0.76),
    ("CTTIQYNYMCN [TP53_Y234_H233Q]", 0.955),
    ("ALRHYYKLNII [ETV6_Y402]", 1.28),
    ("MTYMFYRENLR [NLRP14_Y443_V441M]", 1.19),
    ("IDLEKYKLLPE [DHFR_Y157]", 1.2),
    ("VRFMADTDETF [F8_Y450_Y450D]", 1.3),
    ("WISNRSLDFSS [PRPH2_Y184_Y184S]", 0.765),
    ("FGSSSSGGAGG [RPA2_Y14_Y14S_YF]", 0.638),
    ("TLSGTYQFIIA [FOXL2_Y81_I80T_YF]", 1.05),
    ("EFNINYNNEPP [THG1L_Y228_L232P]", 1.3),
]

----------
biological target: FGFR3 (UniProt P22607); assay: phosphorylation enrichment, bacterial display (enrichment ratio); higher = better substrate or ligand; peptides without Tyr show the background
Sequence (P22607 whole entry, looked up): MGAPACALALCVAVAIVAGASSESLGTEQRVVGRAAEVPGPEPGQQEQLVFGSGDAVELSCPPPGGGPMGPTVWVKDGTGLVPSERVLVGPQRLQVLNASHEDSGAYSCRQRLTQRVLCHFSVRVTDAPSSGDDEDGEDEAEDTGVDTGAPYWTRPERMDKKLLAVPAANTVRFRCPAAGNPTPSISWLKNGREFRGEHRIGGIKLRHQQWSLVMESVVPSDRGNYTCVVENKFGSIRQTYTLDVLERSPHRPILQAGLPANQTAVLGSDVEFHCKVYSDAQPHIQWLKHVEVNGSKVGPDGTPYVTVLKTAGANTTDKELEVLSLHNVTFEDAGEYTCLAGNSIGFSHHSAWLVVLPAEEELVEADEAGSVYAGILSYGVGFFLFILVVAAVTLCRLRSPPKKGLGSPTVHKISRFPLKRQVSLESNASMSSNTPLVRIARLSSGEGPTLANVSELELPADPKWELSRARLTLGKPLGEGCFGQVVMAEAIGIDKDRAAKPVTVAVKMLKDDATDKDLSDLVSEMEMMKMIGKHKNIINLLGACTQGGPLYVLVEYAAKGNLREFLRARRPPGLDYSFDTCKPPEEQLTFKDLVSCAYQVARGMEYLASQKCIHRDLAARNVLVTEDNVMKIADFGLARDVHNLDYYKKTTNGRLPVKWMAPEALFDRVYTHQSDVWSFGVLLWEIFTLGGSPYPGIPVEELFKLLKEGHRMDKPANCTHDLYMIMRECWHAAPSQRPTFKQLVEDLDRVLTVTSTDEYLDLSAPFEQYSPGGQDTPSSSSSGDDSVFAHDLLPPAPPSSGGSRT
Classification field: Satisfied = phosphorylation enrichment at or over 0.7; Not satisfied = phosphorylation enrichment under 0.7.

# Sequence Entry, Qualitative Label
measured = [
    ("EFNLMYHGTKE [IRF6_Y97_D98H]", "Not satisfied"),
    ("PSDLLYIPDIQ [ITGA2B_Y845_L847P]", "Satisfied"),
    ("ADLTEYLSTHF [UQCRC1_Y219_YF]", "Satisfied"),
    ("YDAHNYHPLPV [OAT_Y55_G51D]", "Satisfied"),
    ("ERNAHYRTPKI [PTK2B_Y699_R698H]", "Not satisfied"),
    ("TLNFCYQQVKS [PTK2_Y148_F147C]", "Satisfied"),
    ("PEQAAYQKVVA [HBB_Y131_V127E]", "Not satisfied"),
    ("AFGEVYEGQVS [ALK_Y1131]", "Not satisfied"),
    ("PASLSYLSFEG [EXOSC3_Y143]", "Satisfied"),
    ("QNKEDYAGLKE [GSTO1_Y139]", "Satisfied"),
    ("ERNARYRTPKI [PTK2B_Y699]", "Not satisfied"),
    ("TLMNAYSSRSH [KIF11_Y231]", "Not satisfied"),
    ("QSKGIYFVQLE [MGAT4B_Y262_YF]", "Satisfied"),
    ("YFRDGYMPRQY [GSS_Y270]", "Satisfied"),
]

----------
target: FGFR3 (UniProt P22607); assay: phosphorylation enrichment, bacterial display (enrichment ratio); higher = better substrate or ligand; peptides without Tyr show the background
Classification field: class 1 = phosphorylation enrichment at or over 0.6; class 0 = phosphorylation enrichment under 0.6.

# Sequence Entry, Qualitative Label
measured = [
    ("QYKGKYLAKHN [CASK_Y712_D710G]", "class 1"),
    ("SARSAYQEAID [SFN_Y151_M155I]", "class 1"),
    ("VATRWYRSLEL [CDKL5_Y177_P180L]", "class 0"),
    ("QQLDEYQKLLD [LMNA_Y359_E361K]", "class 1"),
    ("DPEGAYTTRGG [EPHA3_Y779_A777G]", "class 0"),
    ("IKGNMYYENSY [EGFR_Y112_R108K]", "class 1"),
    ("LSIQCYLRASD [HMGCS2_Y262_L266S]", "class 1"),
]
